# protocol_description: NCI Yeast Anticancer Drug Screen. Data for the bub3 strain (AID 167)
# condition_context: S. cerevisiae bub3 mutant strain, at 50.0 µM, stronger effect = higher value
This is part of a sample that, as a whole, favours compounds with a hit. Of some 79,000 tested, about 15% had one in any assay.

[
  {
    "compound": "Cc1cc(C)nc(Sc2c([N+](=O)[O-])ncn2C)n1",
    "display_unit": "%",
    "growth inhibition": 12.6
  },
  {
    "compound": "Cc1cc[c]([Sb]2([c]3ccc(C)cc3)([c]3ccc(C)cc3)[NH]c3cc(C(c4ccccc4)(c4ccccc4)c4ccccc4)cc(C(C)(C)C)c3[O]2)cc1",
    "display_unit": "%",
    "growth inhibition": -1.25
  },
  {
    "compound": "CC1=C/C(=N\\O)C(C(O)(C(F)(F)F)C(F)(F)F)C(C)(C)C1 (stereo not given)",
    "display_unit": "%",
    "growth inhibition": -7.35
  },
  {
    "compound": "COc1ccc(C(Br)C(Br)C(=O)C(C)(C)C)cc1 (stereo not given)",
    "display_unit": "%",
    "growth inhibition": 31.6
  },
  {
    "compound": "COc1ccc(-c2cc(-c3ccncc3)[nH]c2-c2nccc3ccccc23)cc1",
    "display_unit": "%",
    "growth inhibition": 73.7
  }
]

The reported numbers originate from PubChem BioAssay (NCI).
